# MEASURED_TARGET: NRAS WT (Homo sapiens (Human), UniProt P01111+P62937)
# Sequence (P01111 whole entry): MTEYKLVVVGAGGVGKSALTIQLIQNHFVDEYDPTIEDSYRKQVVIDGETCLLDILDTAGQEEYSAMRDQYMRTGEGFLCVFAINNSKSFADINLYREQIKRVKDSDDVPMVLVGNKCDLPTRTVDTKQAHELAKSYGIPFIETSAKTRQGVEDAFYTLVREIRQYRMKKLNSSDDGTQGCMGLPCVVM
# Sequence (P62937 whole entry): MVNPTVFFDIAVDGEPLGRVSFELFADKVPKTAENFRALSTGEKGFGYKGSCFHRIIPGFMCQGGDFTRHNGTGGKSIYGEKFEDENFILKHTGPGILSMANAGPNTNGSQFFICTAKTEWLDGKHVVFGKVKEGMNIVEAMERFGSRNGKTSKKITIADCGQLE
# TEST_DETAILS: Ras-Raf (BRAF RBD) disruption / FRET / MOA assay, NRAS WT
# Assay type: biochemical
# MEASUREMENT_PARAMETERS: read-out: IC50* NRAS WT FRET data
ENDPOINT_NAME: IC50

C=CC(=O)N1CC[C@H](C(=O)N(C)[C@H](C(=O)N[C@H]2Cc3cccc(c3)-c3ccc4c(c3)c(c(-c3cc(C5CN(C)C5)cnc3[C@H](C)OC)n4CC)CC(C)(C)COC(=O)[C@@H]3CCCN(N3)C2=O)C(C)C)C1 (atropisomer, axis not shown) [Example A392]: 1000 to 10000 nM
CCn1c(-c2cccnc2[C@H](C)OC)c2c3cc(ccc31)N1CCO[C@@H](C[C@H](NC(=O)[C@H](C(C)C)N(C)C(=O)C3(F)CCN(C(=O)C#CC(C)(C)N(C)C)CC3)C(=O)N3CCC[C@H](N3)C(=O)OCC(C)(C)C2)C1 (atropisomer, axis not shown) [Example A647]: 100 to 1000 nM
C=CC(=O)Nc1ccc(C(=O)N(C)[C@H](C(=O)N[C@H]2Cc3cc(O)cc(c3)-c3ccc4c(c3)c(c(-c3cccnc3[C@H](C)OC)n4CC)CC(C)(C)COC(=O)[C@@H]3CCCN(N3)C2=O)C(C)C)nc1 (atropisomer, axis not shown) [Example A252]: 100 to 1000 nM
CO[C@@H](C)c1ncccc1-c1c2c3cc(ccc3n1CC(F)(F)F)-c1cccc(c1)C[C@H](NC(=O)[C@@H](COC1CN(C(=O)C#CC3(C)OCCO3)C1)C(C)C)C(=O)N1CCC[C@H](N1)C(=O)OCC(C)(C)C2 (atropisomer, axis not shown) [Example A703]: 1000 to 10000 nM
C=CC(=O)N1CC2(C1)OCCCN2C(=O)N(C)[C@H](C(=O)N[C@H]1Cc2nc(cs2)-c2ccc3c(c2)c(c(-c2cccnc2[C@H](C)OC)n3CC)CC(C)(C)COC(=O)[C@@H]2CCCN(N2)C1=O)C(C)C (atropisomer, axis not shown) [Example A735]: 1000 to 10000 nM

Please turn your attention to the following entry.
Exercise: Using the record for C=CC(=O)N(C)[C@@H]1CCCN(C(=O)N(C)[C@H](C(=O)N[C@H]2Cc3nc(cs3)-c3ccc4c(c3)c(c(-c3cccnc3[C@H](C)OC)n4CC)CC(C)(C)COC(=O)[C@@H]3CCCN(N3)C2=O)C(C)C)C1 (atropisomer, axis not shown) [Example A382] , report its IC50.
Key: 10 to 100 nM

---

# MEASURED_TARGET: KRAS G12S (Homo sapiens (Human), UniProt P01116+P62937, G12S)
# Sequence (P01116-2 other isoform, or with tags, fused parts or gaps G12S): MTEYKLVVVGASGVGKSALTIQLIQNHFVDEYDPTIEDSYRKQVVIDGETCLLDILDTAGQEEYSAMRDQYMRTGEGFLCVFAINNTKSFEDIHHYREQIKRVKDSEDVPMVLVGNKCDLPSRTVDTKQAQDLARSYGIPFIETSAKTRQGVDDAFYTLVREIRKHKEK
# Sequence (P62937 whole entry): as the sequence (P62937 whole entry) above
# TEST_DETAILS: Ras-Raf (BRAF RBD) disruption / FRET / MOA assay, KRAS G12S
# Assay type: biochemical
# MEASUREMENT_PARAMETERS: Ras-Raf disruption/FRET/MOA assay; class symbols; read-out: KRAS G12S FRET data IC50
ENDPOINT_NAME: IC50

Known IC50 results, listed for orientation:
C=CC(=O)N1CC[C@H](C(=O)N(C)[C@H](C(=O)N[C@H]2Cc3cccc(c3)-c3ccc4c(c3)c(c(-c3ccccc3[C@H](C)OC)n4CC)CC(C)(C)COC(=O)[C@@H]3CCCN(N3)C2=O)C(C)C)C1 (atropisomer, axis not shown): > 10000 nM
C=CC(=O)N1CC[C@H](C(=O)N(C)[C@H](C(=O)N[C@H]2Cc3csc(n3)-c3ccc4c(c3)c(c(-c3cc(N5CCN(C)CC5)cnc3[C@H](C)OC)n4CC(F)(F)F)CC(C)(C)COC(=O)[C@@H]3CCCN(N3)C2=O)C(C)C)C1: 100 to 1000 nM
C=CC(=O)N1CC[C@](F)(C(=O)N(C)[C@H](C(=O)N[C@H]2Cc3cccc(c3)-c3ccc4c(c3)c(c(-c3cccnc3[C@H](C)OC)n4CC)CC(C)(C)COC(=O)[C@@H]3CCCN(N3)C2=O)C(C)C)C1 (atropisomer, axis not shown): 1000 to 10000 nM
C=CC(=O)N1CCN(C(=O)N(C)[C@H](C(=O)N[C@H]2Cc3nc(cs3)-c3ccc4c(c3)c(c(-c3cccnc3[C@H](C)OC)n4CC(F)(F)F)CC(C)(C)COC(=O)[C@@H]3CCCN(N3)C2=O)C(C)C)CC12CC2 (atropisomer, axis not shown): 10 to 100 nM
CCn1c(-c2ccccc2CCOC)c2c3cc(ccc31)-c1cc(O)cc(c1)C[C@H](NC(=O)[C@H](C(C)C)N(C)C(=O)c1ccc(NC(=O)/C=C/CN(C)C)nc1)C(=O)N1CCC[C@H](N1)C(=O)OCC(C)(C)C2: > 10000 nM
CCn1c(-c2cccnc2[C@H](C)OC)c2c3cc(ccc31)-c1csc(n1)C[C@H](NC(=O)[C@H](C(C)C)N(C)C(=O)N1CCC13CN(C(=O)/C=C/CN(C)C)C3)C(=O)N1CCC[C@H](N1)C(=O)OCC(C)(C)C2 (atropisomer, axis not shown): 10 to 100 nM
C=CC(=O)N1CC[C@H](C(=O)N(C)[C@H](C(=O)N[C@H]2Cc3cc(O)cc(c3)-c3ccc4c(c3)c(c(-c3cn(C)cn3)n4CC)CC(C)(C)COC(=O)[C@@H]3CCCN(N3)C2=O)C(C)C)C1: 1000 to 10000 nM

Please turn your attention to the following entry.
Exercise: Using the record for CCn1c(-c2cccnc2[C@H](C)OC)c2c3cc(ccc31)-c1cc(O)cc(c1)C[C@H](NC(=O)[C@H](C(C)C)N1CC[C@@]3(CCN(C(=O)/C=C/CN(C)C)C3)C1=O)C(=O)N1CCC[C@H](N1)C(=O)OCC(C)(C)C2 (atropisomer, axis not shown) , report its IC50.
Key: 100 to 1000 nM
